Reference source for all entries: PubChem BioAssay (NCI)

// values below are reported growth
Tested on: SNB-19 CNS
Assay: NCI-60 one-dose screen, 48 h (100 = growth as untreated, 0 = no growth, -100 = all killed)
Settings: 10 µM unless noted
This is part of a sample that, as a whole, favours compounds with a hit. Of some 83,000 tested, about 20% had one in any assay.

Molecule: COc1ccc(-c2nnc(SCC(=O)Nc3ccc(/C(C)=N\O)cc3)n2-c2ccccc2)cc1OC
Tested Target: SNB-19 CNS
Unit Of Measurement: %
growth: 75.8
--
Molecule: C/C(C=O)=C\c1ccc2c(c1)OCO2
Tested Target: SNB-19 CNS
Unit Of Measurement: %
growth: 111
--
Molecule: COc1cc(/C=C2\C(=O)N(c3c(Cl)cccc3Cl)c3ccccc32)cc(OC)c1OCCCCCCn1c2ccccc2c(=O)c2ccccc21
Tested Target: SNB-19 CNS
Unit Of Measurement: %
growth: 98.4
--
Molecule: NC(=O)c1c(NC(=O)c2ccc(Cl)cc2)sc2c1CCC(=O)C2
Tested Target: SNB-19 CNS
Unit Of Measurement: %
growth: 71.1
--
Molecule: CSCCC(NC(=O)c1ccccc1)C(=O)N/N=C1\S/C(=C/c2ccc(Cl)cc2)C(=O)N1C (stereo not drawn)
Tested Target: SNB-19 CNS
Unit Of Measurement: %
growth: 68.1
--
Molecule: Cc1ccc(Nc2nc(-c3ccc(F)cc3)c(C#N)c(=O)n2C)cc1
Tested Target: SNB-19 CNS
Unit Of Measurement: %
growth: 56.2
--
Molecule: O=C1C(Cl)=C(NCCN2CCOCC2)C(=O)c2ncccc21
Tested Target: SNB-19 CNS
Unit Of Measurement: %
growth: 17.3
--
Molecule: CCOC(=O)c1c2c(n3ccccc13)C(=O)c1ncccc1C2=O
Tested Target: SNB-19 CNS
Unit Of Measurement: %
growth: 16.5

====

System: CCRF-CEM leukemia
Assay: NCI-60 one-dose screen, 48 h (100 = growth as untreated, 0 = no growth, -100 = all killed)
Conditions: 10 µM unless noted
Compounds without any hit were thinned out: in the full panel of roughly 83,000, 20% have a hit.
# growth listing for each entry below
Quantity Kind: growth (%)

Compound: Cc1nn(-c2ccccc2)c(/N=C/N(C)C)c1/C=C/C(=O)c1ccc(Cl)cc1
Unit Of Measurement: %
Recorded Result: 66.6
//
Compound: COc1cc(C2Cc3ncccc3-c3[nH]c(=O)c4cccnc4c32)cc(OC)c1OC (stereo not drawn)
Unit Of Measurement: %
Recorded Result: 22.1
//
Compound: CC(/C=C1\SC(=S)N(CC(=O)NC(Cc2c[nH]c3ccccc23)C(=O)O)C1=O)=C\c1ccccc1 (stereo not drawn)
Unit Of Measurement: %
Recorded Result: 104
//
Compound: C=CCn1c(SCC(=O)Nc2ccc(C(=O)/C=C/c3cc(OC)c(OC)c(OC)c3)cc2)nnc1-c1cc(-c2ccc(OC)cc2)nc2ccccc12
Unit Of Measurement: %
Recorded Result: 66.6
//
Compound: Cc1ccc(/C=C/C(=O)c2ccc(NC(=O)CSc3nc4c([nH]3)c(=O)n(C)c(=O)n4C)cc2)c(C)c1
Unit Of Measurement: %
Recorded Result: 65.3
//
Compound: CN1CCN(Cc2ccc(NC(=O)c3cncc(C#Cc4cncc5ncccc45)c3)cc2C(F)(F)F)CC1
Unit Of Measurement: %
Recorded Result: 3.31
//
Compound: Cc1[nH]c(C(=O)Nc2ccc(C(N)=O)cc2NC(C)C)c(Cl)c1Cl
Unit Of Measurement: %
Recorded Result: 94.2
//
Compound: O=C1/C(=C/c2ccccc2)CN(C(=O)c2cccnc2)C/C1=C\c1ccccc1
Unit Of Measurement: %
Recorded Result: -15
//
Compound: COc1ccc(-c2cc(-c3ccc(OC)cc3)nc(NCCCNc3ccnc4cc(Cl)ccc34)n2)cc1
Unit Of Measurement: %
Recorded Result: 3.08
//
Compound: Cc1nc2ccccc2c(/C=C/c2ccc(C(F)(F)F)cc2)c1C(=O)/C=C/c1ccccc1
Unit Of Measurement: %
Recorded Result: 5.84
//
Compound: O=C1/C=C/[C@@H](O)[C@@H]2C[C@@H](O)C[C@H]2/C=C/CCC[C@H](CCOCc2ccccc2)O1
Unit Of Measurement: %
Recorded Result: 27.5
//
Compound: Fc1ccc2c(c1)c(-c1nc(-c3c[nH]c4ncccc34)cs1)cn2CCCN1CCOCC1
Unit Of Measurement: %
Recorded Result: 21.8
//
Compound: COCCCOc1cc(C[C@@H](C[C@H](N)[C@@H](O)C[C@H](C(=O)NCC(C)(C)C(N)=O)C(C)C)C(C)C)ccc1OC
Unit Of Measurement: %
Recorded Result: 110
//
Compound: CNC(=O)c1cc(Oc2ccc3nc(NC(=O)Nc4ccc(Cl)c(Cl)c4)sc3c2)ccn1
Unit Of Measurement: %
Recorded Result: 42.5
//
Compound: Cc1ccc(/C=C(\C#N)C(=O)Nc2ncc(Cc3cc(Cl)ccc3Cl)s2)o1
Unit Of Measurement: %
Recorded Result: 55.4
//
Compound: COc1cc2ncnc(Nc3ccc(F)c(Cl)c3)c2cc1OCC(=O)N1CCN(c2ccc(F)cc2)CC1
Unit Of Measurement: %
Recorded Result: 113
//
Compound: COc1ccc(NC(=O)c2ccc(C(=O)Nc3ccc(OC)cc3OC)cc2)c(OC)c1
Unit Of Measurement: %
Recorded Result: 90
//
Compound: CCOC(=O)c1c(C)nc2c(c1N)CC(=O)N2Cc1cc(OC)c(OC)c(OC)c1
Unit Of Measurement: %
Recorded Result: 78.2

====

Tested on: HOP-62 NSCLC
Assay: NCI-60 one-dose screen, 48 h (100 = growth as untreated, 0 = no growth, -100 = all killed)
Conditions: 10 µM unless noted
Compounds without any hit were thinned out: in the full panel of roughly 83,000, 20% have a hit. Activity calls are given as the source filed them. How the source made its calls: active means growth percent below 10; inactive means the rest.

Compound: O=C(Nc1cccc(NC(=O)C2CCCCC2)c1)c1ccccn1
growth: 100% (inactive)
--
Compound: C=CC(C)(O)CC/C=C(\CO)C(=O)OC1C(C)OC(O[C@](C)(C=C)CC/C=C(\CO)C(=O)O[C@H]2C[C@@]3(C(=O)OC4OC(CO)C(O)C(O)C4OC4OC(C)C(OC5OC(CO)C(O)C5O)C(OC5OC(CO)C(O)C(O)C5O)C4O)C(CC2(C)C)C2=CCC4[C@@]5(C)CC[C@H](OC6OC(COC7OC(C)C(O)C(O)C7OC7OCC(O)C(O)C7O)C(O)C(O)C6NC(C)=O)C(C)(C)C5CC[C@@]4(C)[C@]2(C)C[C@H]3O)C(O)C1O (stereo partly drawn)
growth: -66.9% (active)
--
Compound: CCN(C(=O)N1CCN(c2cc3c(cc2F)c(=O)c(C(=O)O)cn3C2CC2)CC1)c1nc(-c2ccc(C)cc2)cs1
growth: 5.92% (active)
--
Compound: COc1cc(-c2nc(NC(C)=O)sc2-c2ccnc(NCCNS(=O)(=O)c3ccccc3)n2)ccc1Cl
growth: 34.2% (inactive)
--
Compound: CC(C)[C@@]12C[C@@H](OC(=O)COC(=O)c3ccccc3)[C@@](C)(O1)[C@@H]1CC[C@@H](C)[C@H]1[C@@H]2OC(=O)/C=C/c1ccccc1
growth: 89.5% (inactive)
--
Compound: CCOC(=O)c1c(C)nc2c(c1N)CC(=O)N2Cc1cc(OC)c(OC)c(OC)c1
growth: 32.5% (inactive)
--
Compound: FC(F)(F)c1[nH]ncc1-c1nc2c(N3CCCCC3)cc3[nH]ncc3c2c2c1CCCC2
growth: -8.3% (active)
--
Compound: CC(C(=O)O)n1c(O)c(C=Nc2cccnc2)sc1=S (stereo not drawn)
growth: 89.5% (inactive)

====

Tested on: PC-3 prostate
Assay: NCI-60 one-dose screen, 48 h (100 = growth as untreated, 0 = no growth, -100 = all killed)
Conditions: 10 µM unless noted
The panel holds about 83,000 compounds, 20% with a hit somewhere; the sample as a whole holds those more often. Calls of active or inactive are those of the source. Rule for the calls: active = growth percent below 10; inactive = the rest.
Form field: growth (one value per entry).

Molecule: Fc1ccc2c(c1)c(-c1nc(-c3c[nH]c4ncccc34)cs1)cn2CCCN1CCOCC1
growth: 31.9% (inactive)
--
Molecule: Cc1ccc(/C=C(\C#N)C(=O)Nc2ncc(Cc3cc(Cl)ccc3Cl)s2)o1
growth: 38.8% (inactive)
--
Molecule: COc1ccc2cc(-c3ccc(-c4ccc(C(=N)N)s4)s3)ccc2c1
growth: 23.1% (inactive)
--
Molecule: COc1ccccc1-n1c(-c2cc(O)ccc2C)cn2c3c(=O)[nH]c(=O)n(C)c3nc12
growth: 67.1% (inactive)
--
Molecule: Cc1c(N2CN3C[C@H](C)N4CN(c5c(C)n(C)n(-c6ccccc6)c5=O)CN5C[C@@H](C)N(C2)C3C54)c(=O)n(-c2ccccc2)n1C (stereo not given in full)
growth: 94.2% (inactive)

====

Tested on: M14 melanoma
Test: NCI-60 one-dose screen, 48 h (100 = growth as untreated, 0 = no growth, -100 = all killed)
Conditions: 10 µM unless noted
About 83,000 compounds went through this panel and 20% of them were active in at least one assay; those are over-represented in the sample as a whole.
growth strictly under 90% means criterion met; at 90% or over means criterion not met.

Compound: CCOC(=O)CSc1nc2sc3c(c2c(=O)n1-c1ccc([N+](=O)[O-])cc1)CCCCC3
Qualitative Label: criterion met

Compound: CCN(CC)CCNC(=O)c1ccc(-c2nc3ccc4[nH]ncc4c3c3c2CCCC3)cc1
Qualitative Label: criterion met

Compound: C#CCn1cnc2c(Nc3cccc(NC(=O)CCl)c3)ncnc21
Qualitative Label: criterion met

Compound: COCCCOc1cc(C[C@@H](C[C@H](N)[C@@H](O)C[C@H](C(=O)NCC(C)(C)C(N)=O)C(C)C)C(C)C)ccc1OC
Qualitative Label: criterion not met

Compound: Nc1c(C(=O)O)cc(Cl)cc1[N+](=O)[O-]
Qualitative Label: criterion not met

Compound: Cc1nc2sc(C(=O)Nc3ccc(Cl)cc3)c(N)c2cc1C(O)c1ccccc1 (stereo not given)
Qualitative Label: criterion met

Compound: CCC(C)Nc1ccc(NC(C)CC)cc1 (stereo not given)
Qualitative Label: criterion not met

Compound: COc1ccc(C2C(C#N)=C(N)Oc3c2sc2c(Br)cccc32)cc1 (stereo not given)
Qualitative Label: criterion met

Compound: N#Cc1c(NC(=O)c2cccs2)[n+]([O-])c2ccc(Cl)cc2[n+]1[O-]
Qualitative Label: criterion met
